# studyTarget: IL-23 (human, p19/p40 heterodimer) (Homo sapiens, UniProt Q9NPF7;P29460 SEQ:20-189,SEQ:23-328)
# Sequence (Q9NPF7 20-189, chain 1 of 2): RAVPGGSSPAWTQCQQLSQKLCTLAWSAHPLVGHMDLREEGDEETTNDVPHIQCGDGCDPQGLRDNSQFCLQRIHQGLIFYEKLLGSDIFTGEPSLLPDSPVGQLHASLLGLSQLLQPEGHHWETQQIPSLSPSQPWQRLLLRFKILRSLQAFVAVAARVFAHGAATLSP
# Sequence (P29460 23-328, chain 2 of 2): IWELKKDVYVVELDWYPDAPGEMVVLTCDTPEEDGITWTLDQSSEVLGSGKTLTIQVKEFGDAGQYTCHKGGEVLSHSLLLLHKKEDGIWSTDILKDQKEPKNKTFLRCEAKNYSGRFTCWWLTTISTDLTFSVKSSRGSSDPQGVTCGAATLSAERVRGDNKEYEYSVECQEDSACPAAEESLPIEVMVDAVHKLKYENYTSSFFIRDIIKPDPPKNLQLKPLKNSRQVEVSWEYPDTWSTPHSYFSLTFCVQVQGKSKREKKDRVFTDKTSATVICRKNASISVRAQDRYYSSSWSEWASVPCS
# testName: filter; DPBS Ca Mg
# settings: tags: R&D Systems, carrier free
observable: pKd
Would you please state pKd, meaning minus log10 of the concentration in mol/L, as a bare number?

Previously resolved entries follow.
binder	pKd
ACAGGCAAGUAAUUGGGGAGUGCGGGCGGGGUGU (mixed, 2'-OMe C,U and most purines; PS 2-3,6-7,11-12,14-15; 3'-idT [2'-OMe C2,C6,U10,U13,U14,U21,C23,C27,U32,U34 and most purines (positions not stated); PS 2-3,6-7,11-12,14-15 (N = PS linkage, left out); 3'-inverted dT 35]) [ARC1755]	9.10
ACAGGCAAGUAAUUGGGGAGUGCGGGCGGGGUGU (mixed, deoxy A,G; 2'-OMe C,U; PS 31-32; 3'-idT [2'-OMe C,U at 2,6,10,13,14,21,23,27,32,34; deoxy A,G elsewhere; PS 31-32 (N = PS linkage, left out); 3'-inverted dT at 35]) [ARC1464]	8.62
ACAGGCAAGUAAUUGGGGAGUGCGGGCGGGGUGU (mixed, deoxy A,G; 2'-OMe C,U; PS 23-24; 3'-idT [PS linkage 23-24; 2'-OMe C,U at 2,6,10,13,14,21,23,27,32,34; all A,G 2'-deoxy; 3'-inverted dT at 35]) [ARC1459]	8.40
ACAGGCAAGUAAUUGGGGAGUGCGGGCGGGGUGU (mixed, deoxy A,G; 2'-OMe C,U; PS 4-5; 3'-idT [PS linkage 4-5; 2'-OMe C,U at 2,6,10,13,14,21,23,27,32,34; all A,G 2'-deoxy; 3'-inverted dT at 35]) [ARC1454]	8.57
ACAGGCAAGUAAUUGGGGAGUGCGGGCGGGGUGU (mixed, 2'-OMe C,U and G17; other A,G deoxy; 3'-idT) [ARC1438]	8.22

Supply measured pKd of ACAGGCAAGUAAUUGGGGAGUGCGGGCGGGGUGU (mixed, 2'-OMe C,U and G16,G17,G24,G25,G30,G31; other A,G deoxy; PS 3-4,4-5; 3'-idT [PS 3-4,4-5; 2'-OMe at 2,6,10,13,14,16,17,21,23,24,25,27,30,31,32,34; other A,G deoxy; 3'-inverted dT at 35]) [ARC1621] in your reply. 9.30

Name the recorded pKd of the item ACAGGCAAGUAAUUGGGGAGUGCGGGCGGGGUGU (mixed, 2'-OMe C,U and G33; other A,G deoxy; 3'-idT) [ARC1450] in your answer. 8.59

Identify measured pKd associated with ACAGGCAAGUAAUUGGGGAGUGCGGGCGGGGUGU (mixed, 2'-OMe C,U and G24; other A,G deoxy; 3'-idT) [ARC1443] 8.70

Hello, please tell me recorded pKd for this one: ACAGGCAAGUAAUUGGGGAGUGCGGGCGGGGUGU (mixed, 2'-OMe C,U and G18,A19,G20,G22; other A,G deoxy; 3'-idT) [ARC1541] 8.41

Entry source: patent US20060193821
